# METHOD_NOTES: SBL liposome formation, diameter and PDI in various salts
# Format: physicochemical
# DETAILS: 500 mM NaCl, 26 mM lipid, 10 mM HEPES pH 7.4
Decision: Liposome diameter (nm) compared against 70 nm; not below it gives 1.0, below it gives 0.0.

// below: answered compounds
>  <COMPOUND>
CCCCCCCCCCCCCC(=O)OCC(C[N+](C)(C)CCCS(=O)(=O)[O-])OC(=O)CCCCCCCCCCCCC (centres unmarked)

>  <CLASSIFICATION>
0.0

$$$$
>  <COMPOUND>
CCCCCCCCCCCCCCCCCC(=O)OCC(C[N+](C)(C)CCCS(=O)(=O)[O-])OC(=O)CCCCCCCCCCCCCCCCC (centres unmarked)

>  <CLASSIFICATION>
1.0

$$$$
>  <COMPOUND>
CCCCCCCCCCCC(=O)OCC(C[N+](C)(C)CCCS(=O)(=O)[O-])OC(=O)CCCCCCCCCCC (centres unmarked)

>  <CLASSIFICATION>
0.0

$$$$

I'd appreciate it if you could say whether CCCCCCCCCCCCCCCC(=O)OCC(C[N+](C)(C)CCCS(=O)(=O)[O-])OC(=O)CCCCCCCCCCCCCCC (centres unmarked) has Liposome diameter (nm) at least equal to 70 nm.
0.0

I'd appreciate it if you could say whether CCCCCCCC/C=C\CCCCCCCC(=O)OCC(C[N+](C)(C)CCCS(=O)(=O)[O-])OC(=O)CCCCCCC/C=C\CCCCCCCC (centres unmarked) has Liposome diameter (nm) at least equal to 70 nm.
1.0

---

# METHOD_NOTES: SBL liposome formation, diameter and PDI in various salts
# Assay type: physicochemical
# DETAILS: 1000 mM NaCl, 26 mM lipid, 10 mM HEPES pH 7.4
# Method: The five SBLs were first examined for their ability to make vesicles under standard buffer conditions (10 mM HEPES, 140 mM NaCl, pH 7.4). […] Liposome preparations were made at 26 mM lipid in 10 mM HEPES buffer, pH 7.4 with the specified salt concentration. All preparations were rehydrated and sonicated at 80° C. for 7 minutes, allowed to cool for 5 minutes and then measured. Liposome diameters were measured both five minutes after sonication and at 24 hours. […]
MEASURE_NAME: Liposome diameter (nm)
Answers are plain numbers, in nm.

Take each entry in turn and give its Liposome diameter (nm).
1. CCCCCCCCCCCCCC(=O)OCC(C[N+](C)(C)CCCS(=O)(=O)[O-])OC(=O)CCCCCCCCCCCCC (centres unmarked)
2. CCCCCCCCCCCCCCCC(=O)OCC(C[N+](C)(C)CCCS(=O)(=O)[O-])OC(=O)CCCCCCCCCCCCCCC (centres unmarked)
3. CCCCCCCCCCCC(=O)OCC(C[N+](C)(C)CCCS(=O)(=O)[O-])OC(=O)CCCCCCCCCCC (centres unmarked)

1. 76.8
2. 92.53
3. 56.5

Take each entry in turn and give its Liposome diameter (nm).
1. CCCCCCCCCCCCCCCCCC(=O)OCC(C[N+](C)(C)CCCS(=O)(=O)[O-])OC(=O)CCCCCCCCCCCCCCCCC (centres unmarked)
2. CCCCCCCC/C=C\CCCCCCCC(=O)OCC(C[N+](C)(C)CCCS(=O)(=O)[O-])OC(=O)CCCCCCC/C=C\CCCCCCCC (centres unmarked)

[137.9, 118.9]
